TARGET_OR_TEST_SYSTEM: T1, K280-ac protein fragment (human)
T1 construct: also called mAC
T1 peptide: VQIINK(Ac)KLDLSN
TEST_DESCRIPTION: ELISA on K280-ac coated at 250 ng/well, HRP anti-human IgG
Ends that are not written are not given here.
Entries and their Absorbance at 450nm at 1ug/well
METRIC: Absorbance at 450nm at 1ug/well

[[record]]
binder = "v11 (antibody, V domains shown, also called Y01h01v11; ADEL-Y01h v11 antibody) VH: EVQLVESGGGLVQPGRSLRLSCTVSGDSITSGYWNWFRQAPGKGLEYVGYIRYSGRTYYNPSLKSRFTISRDTSKNIAYLQMNSLKTEDTAVYYCASVYFTYWGQGTLVTVSS VL: DVVMTQSPDSLAVSLGERATINCKSSQSLLDSDGKTYLNWYQQKPGQSPKRLISLVSKLDSGVPDRFSGSGSGTDFTLTISSLQAEDVAVYYCWQGSHFPYTFGQGTKLEIK"
experimental_value = 0.0455

[[record]]
binder = "ADEL-Y01h v08 antibody (antibody, V domains shown, Humanized antibody; It was detected with anti-human IgG; also called Y01h01v08) VH: EVTLKESGPTLVKPTQTLTLTCTVSGDSITSGYWNWIRQPPGKALEYLAYIRYSGRTYYNPSLKSRLTITRDTSKNQVVLTMTNMDPVDTATYYCASVYFTYWGQGTLVTVSS VL: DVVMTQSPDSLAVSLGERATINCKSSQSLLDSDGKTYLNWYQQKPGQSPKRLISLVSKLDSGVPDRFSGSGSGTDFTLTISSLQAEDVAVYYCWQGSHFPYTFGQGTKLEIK"
experimental_value = 0.179

[[record]]
binder = "v12 (antibody, V domains shown, also called Y01h01v12; ADEL-Y01h v12 antibody) VH: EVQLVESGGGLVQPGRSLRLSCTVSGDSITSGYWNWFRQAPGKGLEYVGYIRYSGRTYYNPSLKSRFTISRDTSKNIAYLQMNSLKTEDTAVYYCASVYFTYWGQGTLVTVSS VL: EVVLTQSPGTLSLSPGERATLSCKSSQSLLDSDGKTYLNWYQQKPGQSPKRLISLVSKLDSGIPDRFSGSGSGTDFTLTISRLEPEDFAVYYCWQGSHFPYTFGQGTKLEIK"
experimental_value = 1.58

